# testedTarget: Alkaline phosphatase, tissue-nonspecific isozyme (Homo sapiens, UniProt P05186)
# protocolDescription: potency against alkaline phosphatase TNAP – biochemical, luminescent, dose response, SAR follow-up (AID 1056)
Active and inactive are the calls of the source.
Use one of these outcomes when replying: active, inactive

Answered examples (3):
Cc1cc(C)nc(SCC(=O)c2ccc(O)c(O)c2)n1 : active
CC(C)(C)C1(C)Oc2cccc(O)c2O1 (centres undefined) : inactive
O=C(O)c1ccccc1NS(=O)(=O)c1cccc(-n2sc3ccccc3c2=O)c1 : inactive

Okay, next one:
Input: Dear all, I need the recorded test outcome for "Cc1ccc(-n2sc3ccccc3c2=O)cc1S(=O)(=O)N1CCCCC1" , thank you.
Output: inactive

====

Kindly state AC50 for each of the entries shown.
# testedTarget: Cytochrome P450 2C19 (Homo sapiens)
# protocolDescription: Cytochrome panel assay with activity outcomes. Panel member name: p450-cyp2c19 Compounds with AC50 equal or less than 10 uM are considered active
# Format: functional
# reportedConditions: read-out: AC50

Known AC50 results, listed for orientation:
CC1CN(C(=O)COc2ncnc3ccccc23)CC(C)O1 (stereo not given) : 39.8 µM (inconclusive)
COC(=O)[C@@]1(Cc2ccc(OC)cc2)[C@H]2c3cc(C(=O)N(C)C)n(Cc4c(CO)ncc(C)c4O)c3C[C@H]2CN1C(=O)c1ccccc1 : 31.6 µM (inconclusive)
O=C(c1ccccc1)c1c[nH]c(C(=O)NCCCN2CCOCC2)c1 : 0.0355 µM (inconclusive)
CC(=O)c1cc(C#N)c(Oc2ccc(F)cc2)nc1C : 10 µM (inconclusive)

Read the next record carefully.
Input: // AC50 lookup, key: "COc1cccc(-c2cc(NCc3cccs3)ncn2)c1"
Output: 25.1 µM (inconclusive)

====

# Tested on: H4
# protocolDescription: Luminescence Cell-Based Dose Response HTS to Identify Activators of 5'UTR Stem-Loop Driven Prion Protein mRNA Translation in H4 Neuroglioblastoma Cells. [Related pubchem assays: 1829 (Project Summary), 1814 (Primary HTS)]
# Assay type: functional
# reportedConditions: Homo sapiens
Calls of active or inactive are those of the source.
assayMetric: EC50

Known EC50 results, listed for orientation:
C/C(=N\NC(=O)c1nc2ccccn2c1C)c1ccco1 : 15.7 µM (active)
Cc1ccc(Oc2ncc(CN3CCOCC3)s2)cc1 : 40.4 µM (active)
O=C(NC1CCCC1)c1cc(-c2ccccc2)on1 : 3.13 µM (active)

Read the next record carefully.
Input: // EC50 lookup, key: "CCOC(=O)c1sc2nc3n(c(=O)c2c1C)CCCCC3"
Output: 101 µM (active)

====

# testedTarget: Luciferin 4-monooxygenase (Photinus pyralis)
# protocolDescription: inhibition of purified Photinus pyralis luciferase – biochemical, luminescence, dose response (AID 1891)
The source made the active and inactive calls.
assayMetric: EC50

Known EC50 results, listed for orientation:
CCC(C)C(=O)Nc1ncc2c(n1)CC(c1cccs1)CC2=O (stereo unspecified) : > 112 µM (not active)
Cc1onc(-c2ccccc2Cl)c1C(=O)N1CCc2ccccc2C1 : > 112 µM (not active)
CCOc1c(OC(C)=O)ccc(/C=C/c2ccc3cccc(OC)c3n2)c1[N+](=O)[O-] : > 112 µM (not active)
Cc1cc2nc(-c3cccnc3O)[nH]c2cc1C : 1.07 µM (active)
Oc1c(C(c2cccs2)N2CCOCC2)sc2ncnn12 (stereo unspecified) : > 112 µM (not active)
CCN1CCN(S(=O)(=O)c2ccc(Cl)c(C(=O)Nc3ccc(C(=O)N(CC)CC)cc3)c2)CC1 : > 112 µM (not active)
CCn1c(SCc2cccc(C(=O)O)c2)nnc1-c1ccccc1 : > 112 µM (not active)
CCOC(=O)c1sc(=S)n(CC)c1NC(=O)C1CC1 : > 112 µM (not active)

Would you mind listing EC50 for each of the following compounds?
1. Cc1ccnc(NC(=O)c2ccc(OCC3CCCO3)cc2)c1 (stereo unspecified)
2. O=C1CCCC(=O)C1=CNCCc1ccccc1
3. COc1ccc(C(=O)Nc2ccc3[nH]ccc3c2)cc1OC

Output:
1: 7.94 µM (active); 2: > 112 µM (not active); 3: > 112 µM (not active)

====

Kindly state EC50 for each of the entries shown.
# testedTarget: Zinc finger protein mex-5 (Caenorhabditis elegans)
# protocolDescription: potency of MEX-5 RNA-binding blockers – biochemical, C. elegans, fluorescence polarization, dose response (AID 1960)
The source made the active and inactive calls.

Known EC50 results, listed for orientation:
CC(C)CC1=NN2C(=N)/C(=C/c3c[nH]c4ccccc34)C(=O)N=C2S1 : 47.4 µM (active)
O=C1C=C(Nc2cccc3cccnc23)c2ccccc2C1=O : 28.7 µM (active)
CCN(CC)c1ccc(N=Nc2nc[nH]n2)cc1 : > 300 µM (inconclusive)
Cc1cc(O)c(CN(C)C)c2c1C(=O)/C(=C/c1ccco1)O2 : 39.8 µM (active)
O=C1Nc2cc(Cl)cnc2N2CCCC12 (stereo unspecified) : 12.5 µM (active)

Would you mind listing EC50 for each of the following compounds?
1. N#C/C(=C\c1cc(O)c(O)c(O)c1)C(N)=O
2. O=[N+]([O-])c1ccc2nc(O)c(/C=C(\O)c3ccccc3)nc2c1
3. O=C1c2cccc3c(O)ccc(c23)C(=O)N1Cc1ccccc1
4. CCN(CC)S(=O)(=O)c1ccc(N/C=C2\C(=O)N(C)C(=O)C(C#N)=C2C)cc1

Output:
1: > 150 µM (inconclusive); 2: > 300 µM (inconclusive); 3: 0.183 µM (inconclusive); 4: 44.4 µM (active)

Would you mind listing EC50 for each of the following compounds?
1. Nc1c(O)ccc2c1C(=O)c1ccccc1C2=O
2. COc1cc2c(cc1OC)-c1c(OC)c(OC)c(OC)c3ccnc(c13)C2=O

Output:
1. 10.4 µM (active)
2. 4.83 µM (active)

====

# testedTarget: Paired box protein Pax-8 (Homo sapiens)
# protocolDescription: PAX8 transcriptional activity inhibition in RMG-I – RMG-I cells, luciferase, cherry-pick, dose response (AID 687027);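 note: luciferase reporter driven by Pax8 target thyroperoxidase promoter measured by SteadyGlo luminescence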
# Type: functional, cell-based
Calls of active or inactive are those of the source.
Kindly state AC50 for each of the entries shown.

CCCNC(=O)Nc1ccc2c(c1)OC[C@H](C)N(Cc1ccc(-c3ccccn3)cc1)C[C@@H](C)[C@@H](OC)CN(C)C2=O : 32.9 µM (active)
CCCC#Cc1ccc([C@@H]2[C@@H](C#N)N(S(=O)(=O)c3cccc(F)c3)[C@H]2CO)cc1 : 5.96 µM (active)
COc1ccc(S(=O)(=O)Nc2ccc3c(c2)C(=O)N([C@@H](C)CO)C[C@@H](C)[C@@H](CN(C)Cc2ccc(C(F)(F)F)cc2)OCCCC[C@@H](C)O3)cc1 : 6.1 µM (active)
O=C(CC1S/C(=N\c2cccc3ccccc23)N(Cc2ccccn2)C1=O)Nc1ccccc1Br (stereo not drawn) : 15.4 µM (active)
Cc1ccc(S(=O)(=O)N(C)C[C@@H]2Oc3cc(C#Cc4ccncc4)ccc3S(=O)(=O)N([C@H](C)CO)C[C@H]2C)cc1 : 3.3 µM (active)

Would you mind listing AC50 for each of the following compounds?
1. CCSc1ccc(-c2cc(NC=O)c3ncc(-c4cccc(C(=O)NCCN(C)C)c4)n3c2)cc1
2. BrC(=C\c1ccccc1)/C=N/n1cnnc1
3. C#CCN(C[C@@H]1[C@@H](OC(=O)Nc2cccs2)[C@@H](OC(=O)Nc2cccs2)Cn2c(=O)ccc(=O)n21)S(=O)(=O)c1ccc(C)cc1

Output:
1. 9.88 µM (active)
2. 3.84 µM (active)
3. 4.22 µM (active)

====

# testedTarget: FAD-linked sulfhydryl oxidase ALR (Homo sapiens, UniProt P55789)
# protocolDescription: ALR-catalysed DTT oxidation blockers – biochemical, H2O2 detection, luminescence, cherry-pick, dose response (AID 493248)
The source made the active and inactive calls.
assayMetric: AC50

Known AC50 results, listed for orientation:
C/C(=N\Nc1nc2ccccc2[nH]1)c1ccc(C)o1 : 0.299 µM (active)
Cc1cccc(C(=O)Nc2scc(CC(C)C)c2C(=O)O)c1 : 0.016 µM (active)
COc1ccc(-n2nnnc2S(=O)(=O)Cc2ccc(C(=O)O)cc2)cc1 : 0.038 µM (active)

Read the next record carefully.
Input: // AC50 lookup, key: "Cc1nc(SCc2ccc(Cl)c(Cl)c2)ncc1C(=O)O"
Output: 0.027 µM (active)

====

# testedTarget: Short transient receptor potential channel 4 (Mus musculus, UniProt Q9QUQ5)
# protocolDescription: calcium entry via TRPC4 opening agents – cell-based, HEK293 TRPC4/mu-opioid, Fluo-4 calcium, dose response (AID 434937)
# Format: functional
Active and inactive are the calls of the source.
assayMetric: EC50

Known EC50 results, listed for orientation:
CCOc1ccccc1CN1CCNC(=O)C1CC(=O)NCCc1ccccn1 (stereo not drawn) : 5.96 µM (active)
O=C1c2ccccc2S(=O)(=O)c2cc(C(=O)N(c3ccccn3)c3ccccn3)ccc21 : 1.88 µM (active)
CN(C)CCCN(C(=O)c1ccc(C(=O)c2ccccc2)cc1)c1nc2ccc(F)cc2s1 : 5.96 µM (active)

Would you mind listing EC50 for each of the following molecules?
1. CCn1c(N2CCN(C(S)=NCCc3ccccc3)CC2)nc2ccccc21
2. COc1cccc(-c2nn(-c3ccccc3)cc2CN(C)C(C)c2ccncn2)c1 (stereo not drawn)
3. COC(=O)[C@@]1(Cc2ccc(F)cc2)[C@H]2c3cc(C(=O)N(C)C)n(CCc4ccccn4)c3C[C@H]2CN1C(=O)c1ccccc1
4. COc1ccc(C(CNC(=O)Cc2cccs2)N(C)C)cc1 (stereo not drawn)
5. Cc1ccc(C)c(-n2cc(CNCCCn3cccn3)c(-c3ccccc3)n2)c1

Output:
1. 0.376 µM (active)
2. 6.68 µM (active)
3. 5.96 µM (active)
4. 0.237 µM (active)
5. 1.5 µM (active)

src = ChEMBL document CHEMBL1201862
